# Tested on: S. pneumoniae
# Assay details: MIC of invasive strains, Saint George Hospital 2001–2004
# Format: cell-based, Streptococcus pneumoniae
Measurement kind: % S (%)
One number for each entry, in %.

Reported % S of CO/N=C(\C(=O)N[C@@H]1C(=O)N2C(C(=O)O)=C(COC(N)=O)CS[C@H]12)c1ccco1 : 95.2

// sample CC1(C)S[C@@H]2[C@H](NC(=O)Cc3ccccc3)C(=O)N2[C@H]1C(=O)O , its % S was 46

Lab note: measured % S of C[C@H]1COc2c(N3CCN(C)CC3)c(F)cc3c(=O)c(C(=O)O)cn1c23 was 100

Looking up C[C@@H](O)[C@H]1C(=O)N2C(C(=O)O)=C(SCCN=CN)C[C@H]12 , I found its % S recorded as 100

Input CC[C@H]1OC(=O)[C@H](C)[C@@H](O[C@H]2C[C@@](C)(OC)[C@@H](O)[C@H](C)O2)[C@H](C)[C@@H](O[C@@H]2O[C@H](C)C[C@H](N(C)C)[C@H]2O)[C@](C)(O)C[C@@H](C)C(=O)[C@H](C)[C@@H](O)[C@]1(C)O . Output % S: 82

--- query ---
% S for CO/N=C(\C(=O)N[C@@H]1C(=O)N2C(C(=O)O)=C(COC(C)=O)CS[C@H]12)c1csc(N)n1 is 95.2

----------
# Test system: viridans group streptococci (VGS)
# Assay details: MIC
# Format: cell-based
Measurement kind: MIC50
A complete answer gives the number and then names the unit.

Lab note: CC1(C)S[C@@H]2[C@H](NC(=O)Cc3ccccc3)C(=O)N2[C@H]1C(=O)O [penicillin] gave MIC50 of 0.06 µg/mL

Input CC(=O)NC[C@H]1CN(c2ccc(N3CCOCC3)c(F)c2)C(=O)O1 [linezolid] . Output MIC50: 1 µg/mL

Summary for this molecule, CCC[C@@H]1C[C@@H](C(=O)N[C@@H]([C@H]2O[C@H](SC)[C@H](O)[C@@H](O)[C@H]2O)[C@H](C)Cl)N(C)C1 [clindamycin] : MIC50 is 0.06 µg/mL

# MIC50 of CN[C@H](CC(C)C)C(=O)N[C@H]1C(=O)N[C@@H](CC(N)=O)C(=O)N[C@H]2C(=O)N[C@H]3C(=O)N[C@H](C(=O)N[C@H](C(=O)O)c4cc(O)cc(O)c4-c4cc3ccc4O)[C@H](O)c3ccc(c(Cl)c3)Oc3cc2cc(c3O[C@@H]2O[C@H](CO)[C@@H](O)[C@H](O)[C@H]2O[C@H]2C[C@](C)(N)[C@H](O)[C@H](C)O2)Oc2ccc(cc2Cl)[C@H]1O [vancomycin] = 0.5 µg/mL

Entry COc1c(N2CCNC(C)C2)c(F)cc2c(=O)c(C(=O)O)cn(C3CC3)c12 (stereo not drawn) [gatifloxacin] — recorded MIC50 = 0.25 µg/mL

Notebook: CO/N=C(\C(=O)N[C@@H]1C(=O)N2C(C(=O)O)=C(CSc3nc(=O)c(=O)[nH]n3C)CS[C@H]12)c1csc(N)n1 [ceftriaxone] , MIC50 read as 0.06 µg/mL

Entry COc1c(N2C[C@@H]3CCCN[C@@H]3C2)c(F)cc2c(=O)c(C(=O)O)cn(C3CC3)c12 [moxifloxacin] , MIC50 reported as 0.12 µg/mL

Item: CC[C@H]1OC(=O)[C@H](C)[C@@H](O[C@H]2C[C@@](C)(OC)[C@@H](O)[C@H](C)O2)[C@H](C)[C@@H](O[C@@H]2O[C@H](C)C[C@H](N(C)C)[C@H]2O)[C@](C)(O)C[C@@H](C)C(=O)[C@H](C)[C@@H](O)[C@]1(C)O [erythromycin] | MIC50: 0.12 µg/mL

Batch request: MIC50 per item, same order as input.
1. C[C@@H](O)[C@H]1C(=O)N2C(C(=O)O)=C(SCCN=CN)C[C@H]12 [imipenem]
2. C[C@H]1COc2c(N3CCN(C)CC3)c(F)cc3c(=O)c(C(=O)O)cn1c23 [levofloxacin]
3. NCC[C@H](O)C(=O)N[C@@H]1C[C@H](N)[C@@H](O[C@H]2O[C@H](CN)[C@@H](O)[C@H](O)[C@H]2O)[C@H](O)[C@H]1O[C@H]1O[C@H](CO)[C@@H](O)[C@H](N)[C@H]1O [AM, amikacin]
4. CC[C@H]1OC(=O)[C@H](C)C(=O)[C@H](C)[C@@H](O[C@@H]2O[C@H](C)C[C@H](N(C)C)[C@H]2O)[C@](C)(OC)C[C@@H](C)C(=O)[C@H](C)[C@H]2N(CCCCn3cnc(-c4cccnc4)c3)C(=O)O[C@]12C [telithromycin]

1. 0.015 µg/mL
2. 0.5 µg/mL
3. 0.12 µg/mL
4. 0.007 µg/mL
